- TARGET: EhPSP (Entamoeba histolytica)
- Sequence (N9V397 1-205): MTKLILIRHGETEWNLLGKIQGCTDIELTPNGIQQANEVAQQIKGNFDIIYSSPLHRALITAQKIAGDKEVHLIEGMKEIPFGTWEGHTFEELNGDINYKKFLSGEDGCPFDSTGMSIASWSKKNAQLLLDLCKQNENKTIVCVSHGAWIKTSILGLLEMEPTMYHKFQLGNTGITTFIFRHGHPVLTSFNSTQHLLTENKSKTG
ASSAY_METRIC: IC50

Per the record, Cc1nc2ccc(CN(C)c3ccc(C(=O)N[C@@H](CCC(=O)O)C(=O)O)s3)cc2c(=O)[nH]1 [Raltitrexed] has IC50 of ~368 µM
